Taken from patent US20260226048A1.

# measurement target: IRAK4 (Homo sapiens)
# Sequence (Q9NWZ3 1-460): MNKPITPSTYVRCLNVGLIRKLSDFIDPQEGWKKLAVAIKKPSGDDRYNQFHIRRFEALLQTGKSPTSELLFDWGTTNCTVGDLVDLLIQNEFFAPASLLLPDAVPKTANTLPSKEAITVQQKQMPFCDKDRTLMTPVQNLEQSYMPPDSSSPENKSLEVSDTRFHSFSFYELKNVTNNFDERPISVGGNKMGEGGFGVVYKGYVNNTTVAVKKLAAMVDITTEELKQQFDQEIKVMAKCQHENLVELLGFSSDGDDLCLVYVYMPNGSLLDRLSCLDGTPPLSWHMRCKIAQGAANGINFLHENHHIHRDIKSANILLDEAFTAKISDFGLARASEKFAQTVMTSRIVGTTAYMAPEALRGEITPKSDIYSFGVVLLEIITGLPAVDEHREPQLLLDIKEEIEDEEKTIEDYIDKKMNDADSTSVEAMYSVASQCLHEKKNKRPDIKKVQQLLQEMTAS
# procedure text: RBC HotSpot Kinase Assay, IRAK4
# Format: biochemical
# Set-up: purchased Reaction Biology (RBC HotSpot)
# measurement context: isolated kinase enzyme, 33P-ATP, P81 filter-binding
measurement kind: IC50 (nM)
# number only, unit nM dropped from output

Solved cases (4 shown):
COc1cc2ncc(-c3ccnc(N[C@H]4CNCC[C@@H]4F)n3)n2nc1C(C)(C)O [Compound 40a]	76
COc1cc2ncc(-c3nc(N[C@H]4CNC[C@@H]4F)ncc3F)n2nc1C1CC(F)(F)C1 [Compound 50a]	0.8
COc1cc2ncc(-c3ccnc(N[C@H]4CNC[C@@H]4F)n3)n2nc1N1CC(F)(F)C1 [Compound 16a]	8
COc1cc2ncc(-c3cncc(N[C@@H]4CCCNC4)n3)n2nc1C1CC(F)(F)C1 [Compound 72a]	60

Look up IC50 for this compound: COc1cc2ncc(-c3ccnc(N[C@@H]4CCCNC4)n3)n2nc1C1CCCC1 [Compound 84a]
2

Look up IC50 for this compound: COc1cc2ncc(-c3ccnc(N[C@@H]4CCCNC4)n3)n2nc1C1CC(F)(F)C1 [Compound 21a]
81

Look up IC50 for this compound: `FC(F)COc1cc2ncc(-c3ccnc(N[C@H]4CNCC[C@@H]4F)n3)n2nc1C1CC1`
1

Look up IC50 for this compound: F[C@H]1CCNC[C@@H]1Nc1cncc(-c2cnc3cc(OC4CC4)c(C4CC4)nn23)n1 [Compound 13a]
5
